System: CHIKV DRDE-07
PROTOCOL TEXT: In vitro screening against CHIKV (CPE inhibition and MTT cell viability)
Type: cell-based, chikungunya virus
CONDITIONS: Table S1; 72 hpi, MTT assay, CHIKV-infected Vero cells

MOLECULE | SYSTEM | % Cell viability / %
COc1cc(/C=N/NC(=O)c2ccncc2)cc(OC)c1OC [DCR42] | CHIKV DRDE-07 | 12.22
O=C(N/N=C/c1ccc(Cl)cc1Cl)c1ccncc1 [DCR41] | CHIKV DRDE-07 | 35.79
N#Cc1c(F)cccc1N1CCCCC1 [DCR141, 2-Fluoro-6-piperidin-1-yl-benzonitrile] | CHIKV DRDE-07 | 19.24
COc1ccc(C2NC(=O)NC(C)=C2C(=O)OCCN(C)C)cc1 (stereo not drawn) [DCR112] | CHIKV DRDE-07 | 2.09
O=C(O)c1ccc(-c2cc(-c3ccc(O)cc3)nn2C(=O)c2cccnc2)cc1 [DCR62] | CHIKV DRDE-07 | -27.93
C/C(=N\NC(=O)c1ccncc1)c1ccccc1O [DCR44] | CHIKV DRDE-07 | 18.88
O=C(c1cccnc1)n1nc(-c2ccc(O)cc2)cc1-c1cccc([N+](=O)[O-])c1 [DCR63] | CHIKV DRDE-07 | -4.2
O=C(NNC(=O)c1ccc(Cl)cc1)c1ccncc1 [DCR11, N'-(4-chlorobenzoyl)isonicotinohydrazide] | CHIKV DRDE-07 | 22.85
C/C(=N\NC(=O)c1ccncc1)c1ccccc1N [DCR51] | CHIKV DRDE-07 | -2.93
